# target_or_system: UniProt:P17597
# Sequence (P17597 86-670): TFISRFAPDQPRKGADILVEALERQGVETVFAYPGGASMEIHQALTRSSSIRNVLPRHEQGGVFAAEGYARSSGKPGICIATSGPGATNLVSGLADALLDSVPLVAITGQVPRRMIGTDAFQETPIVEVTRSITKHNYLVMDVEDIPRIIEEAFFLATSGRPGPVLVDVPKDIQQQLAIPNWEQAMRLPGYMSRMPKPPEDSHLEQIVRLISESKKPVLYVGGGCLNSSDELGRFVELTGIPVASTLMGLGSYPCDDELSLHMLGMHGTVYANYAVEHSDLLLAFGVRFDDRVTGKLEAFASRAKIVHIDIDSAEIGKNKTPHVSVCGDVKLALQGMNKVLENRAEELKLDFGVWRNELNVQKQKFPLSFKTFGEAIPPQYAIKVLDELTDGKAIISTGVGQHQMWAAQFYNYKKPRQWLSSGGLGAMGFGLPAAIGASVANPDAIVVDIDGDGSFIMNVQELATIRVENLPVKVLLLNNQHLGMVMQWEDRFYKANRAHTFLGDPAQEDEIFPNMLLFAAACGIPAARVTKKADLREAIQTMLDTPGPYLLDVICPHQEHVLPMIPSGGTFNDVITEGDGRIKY
# Format: biochemical
# Procedure: Standard assays were performed using a continuous spectrophotometric method measuring the disappearance of pyruvate. The standard buffer contained 50 mM potassium phosphate, pH 7.2, 1 mM ThDP, 10 mM MgCl2, and 10 µM FAD. The concentration of pyruvate was in the range 100–160 mM, as described in the text, methods, or figure legends. […] Supplementary Figure 8. […] The rate constants of enzyme inactivation ( kiapp) and enzyme recovery (k3) were measured in triplicate. […]
I'd be grateful if you could share measured kiapp/k3 (efficiency of accumulative inhibition) for these entries.
Respond numerically, and do not add a unit to the figure.

Exam item: Identify the measured kiapp/k3 (efficiency of accumulative inhibition) of `COc1cc(OC)nc(NC(=O)NS(=O)(=O)N(C)S(C)(=O)=O)n1` for UniProt:P17597.
Marked response: 20

Exam item: Kindly state the measured kiapp/k3 (efficiency of accumulative inhibition) obtained for `COc1cnc(OC)n2nc(NS(=O)(=O)c3c(OCC(F)F)cccc3C(F)(F)F)nc12` with UniProt:P17597.
Marked response: 87

Exam item: I'm curious: which kiapp/k3 (efficiency of accumulative inhibition) was measured for `COc1cc(OC)nc(Oc2cccc(Oc3nc(OC)cc(OC)n3)c2C(=O)O)n1` tested on UniProt:P17597?
Marked response: 18

These entries and their values trace back to paper PMC9188596.
